Experiment: Half life in rat at 1 mg/kg, iv
Type: ADME, organism-based
Set-up: dose 1 mg/kg, route intravenous
Settings: in vivo
half-life vs 3 h: less than gives true; not less than gives false.

Task: Hello, I'm reviewing records and need to know if half-life of `CN(C)C(=O)NCCCc1c(CN(C)[C@H]2CCCc3cccnc32)ncc2ccccc12` is below 3 h. Could you check?
Output: false

Task: Hello, I'm reviewing records and need to know if half-life of `CN(Cc1ncc2ccccc2c1CCCNS(C)(=O)=O)[C@H]1CCCc2cccnc21` is below 3 h. Could you check?
Output: false

Task: Hello, I'm reviewing records and need to know if half-life of `CN(Cc1ncc2ccccc2c1CNC(=N)N)[C@H]1CCCc2cccnc21` is below 3 h. Could you check?
Output: false

Task: Hello, I'm reviewing records and need to know if half-life of `CN(C)CC(=O)NCc1c(CN(C)[C@H]2CCCc3cccnc32)ncc2ccccc12` is below 3 h. Could you check?
Output: true

Task: Hello, I'm reviewing records and need to know if half-life of `CN(C)CCCc1c(CN(C)[C@H]2CCCc3cccnc32)ncc2ccccc12` is below 3 h. Could you check?
Output: true
